# System: SK-MEL-28 melanoma
# EXPERIMENT_NOTES: NCI-60 one-dose screen, 48 h
# MEASUREMENT_CONTEXT: 10 µM unless noted
This is part of a sample that, as a whole, favours compounds with a hit. Of some 83,000 tested, about 20% had one in any assay. Activity calls are given as the source filed them. The calls were made as follows: active = growth percent below 10; inactive = the rest.
Possible outcomes: 1 (yes) (active), 0 (no) (inactive)

| MOLECULE | SUBJECT_OF_TEST | LABEL |
| --- | --- | --- |
| COc1ccc(-c2nc3cc(C)ccc3n2CC(=O)N=Nc2c(O)[nH]c3ccccc23)cc1 | SK-MEL-28 melanoma | 1 (yes) |
| C=C1CCC2C3(C)COC(c4ccccc4F)OC3CCC2(C)C1CC(O)C1=CCOC1=O (centres undefined) | SK-MEL-28 melanoma | 0 (no) |
| N#Cc1c(-c2cccc3ccccc23)cc(-c2cccc(OCC(=O)O)c2)[nH]c1=O | SK-MEL-28 melanoma | 0 (no) |
| Cc1sc2c(c1C)C(c1ccc(Cl)cc1)=N[C@@H](CC(=O)NCCCCCNC(=O)COc1ccc(C3CCC(=O)NC3=O)cc1)c1nnc(C)n1-2 (some centres undefined) | SK-MEL-28 melanoma | 0 (no) |
| COc1cccc(/C=C/c2nc3ccccc3c(=O)n2CC(=O)Nc2ccc(Cl)cc2)c1 | SK-MEL-28 melanoma | 0 (no) |
| COc1cc2c3c(n(CCCN4CCC[C@@H]4CO)c(=O)c2cc1OC)-c1cc2c(cc1C3=O)OCO2 | SK-MEL-28 melanoma | 1 (yes) |
| COc1c(F)ccc(C(=O)Nc2ccc3nc(NC(=O)C4CCCN(S(=O)(=O)c5ccc(C(F)(F)F)cc5)C4)sc3c2)c1F (centres undefined) | SK-MEL-28 melanoma | 0 (no) |
| CN(C)c1nc(NCCNS(=O)(=O)c2ccc(C(=O)/C=C/c3ccc(C(F)(F)F)cc3)cc2)nc(Nc2ccc(F)cc2)n1 | SK-MEL-28 melanoma | 1 (yes) |
| CN1CCN(/C(=N\c2sc(-c3ccccc3)nc2-c2ccccc2)c2ccccc2)CC1 | SK-MEL-28 melanoma | 0 (no) |
| O=C(c1ccccc1)c1ccc2nc(-c3cccc(Cl)c3)[nH]c2c1 | SK-MEL-28 melanoma | 0 (no) |
| O=c1oc2ccccc2cc1-c1csc(N=Nc2c(O)[nH]c3ccc(Cl)cc23)n1 | SK-MEL-28 melanoma | 0 (no) |
| CCCCSc1nc(NCCc2c[nH]c3ccccc23)c(C#N)c(-c2ccc(OC)cc2)n1 | SK-MEL-28 melanoma | 0 (no) |
| O=C1N/C(=N\c2nccs2)S/C1=C\C=C/c1ccccc1 | SK-MEL-28 melanoma | 0 (no) |
| Nc1cc2ccccc2c(=O)n1NC(=O)c1ccc(I)cc1 | SK-MEL-28 melanoma | 0 (no) |
